# Test system: B16F10 mouse melanoma cells
# Assay Comment: B16F10 IFNγ-induced cellular growth inhibition assay
# Assay type: cell-based
# Particulars: Mus musculus, B16-F10; +0.5 ng/mL IFNγ; 33 μM compound; relative to DMSO control; read-out: % B16F10 growth inhibition (+0.5 ng/mL IFNγ) @ 33 μM
Listed here are molecules together with their documented inhibition at 33 µM.
Observation Type: inhibition at 33 µM

>>> observed("CS(=O)(=O)N1CCC(Nc2ccc3cc(O)c(N4CC(=O)NS4(=O)=O)c(F)c3c2)CC1")
"60 to 90%"
>>> observed("CCCOc1ccc2cc(O)c(N3CC(=O)NS3(=O)=O)c(F)c2c1")
"60 to 90%"
>>> observed("O=C1CN(c2c(O)cc3ccc(C4CN(S(=O)(=O)C5CC5)C4)cc3c2F)S(=O)(=O)N1")
"60 to 90%"
>>> observed("N#CCCCOc1ccc2cc(O)c(N3CC(=O)NS3(=O)=O)c(F)c2c1")
"> 90%"
>>> observed("O=C1CN(c2c(O)cc3ccc(OCCN4CCCCC4)cc3c2F)S(=O)(=O)N1")
"25 to 59%"
>>> observed("CCC(=O)CCOc1ccc2cc(O)c(N3CC(=O)NS3(=O)=O)c(F)c2c1")
"60 to 90%"
>>> observed("N#CC1(CNc2ccc3cc(O)c(N4CC(=O)NS4(=O)=O)c(F)c3c2)CC1")
"60 to 90%"
>>> observed("O=C1CN(c2c(O)cc3ccc(C4CCCOC4)cc3c2F)S(=O)(=O)N1 (centres unmarked)")
"60 to 90%"
>>> observed("O=C1CN(c2c(O)cc3ccc(OCCNS(=O)(=O)C4COC4)cc3c2F)S(=O)(=O)N1")
"> 90%"
>>> observed("N#CC1(CCOc2ccc3cc(O)c(N4CC(=O)NS4(=O)=O)c(F)c3c2)CC1")
"> 90%"
>>> observed("CC(C)CCNc1ccc2cc(O)c(N3CC(=O)NS3(=O)=O)c(F)c2c1")
"> 90%"
>>> observed("CC(C)CS(=O)(=O)N1CC=C(c2ccc3cc(O)c(N4CC(=O)NS4(=O)=O)c(F)c3c2)C1")
"60 to 90%"
>>> observed("O=C1CN(c2c(O)cc3ccc(CC4CCCN(S(=O)(=O)C5CC5)C4)cc3c2F)S(=O)(=O)N1 (centres unmarked)")
"< 25%"
>>> observed("CNCC(C)(C)CCOc1ccc2cc(O)c(N3CC(=O)NS3(=O)=O)c(F)c2c1")
"> 90%"
>>> observed("O=C1CN(c2c(O)cc3ccc(OCC(O)C4CC4)cc3c2F)S(=O)(=O)N1 (centres unmarked)")
"> 90%"
>>> observed("COc1ccc2c(Cl)c(O)c(N3CC(=O)NS3(=O)=O)c(F)c2c1")
"< 25%"
>>> observed("O=C1CN(c2c(O)cc3ccc(NCCC(F)(F)F)cc3c2F)S(=O)(=O)N1")
"> 90%"

---

# Tested on: B16F10 mouse melanoma cells
# Assay Comment: B16F10 IFNγ-induced cellular growth inhibition assay
# Type: cell-based
# Particulars: Mus musculus, B16-F10; +0.5 ng/mL IFNγ; 33 μM compound; relative to DMSO control; read-out: % B16F10 growth inhibition (+0.5 ng/mL IFNγ) @ 33 μM
# Experimental: B16F10 mouse melanoma cells (ATCC Cat ^#CRL-6475, Manassas, Va.) were seeded at a density of 500 cells per well in a 384-well clear bottom plate (Corning Cat^# 3765, Corning, N.Y.) in 25 μL total volume of DMEM+10% FBS (Sigma Cat ^#D6429 and Sigma Cat ^#F4135, St. Louis, Mo.). Cells were allowed to adhere overnight at 37° C.+5% CO2. […] Confluence over time for compound dilutions in the presence and absence of IFNγ was measured. […]
The entries below come with measured inhibition at 33 µM values attached.
Observation Type: inhibition at 33 µM

>>> observed("O=C1CN(c2c(O)cc3ccc(O)cc3c2F)S(=O)(=O)N1 [Compound 276]")
"25 to 59%"
>>> observed("CC(C)(CC#N)CCOc1ccc2cc(O)c(N3CC(=O)NS3(=O)=O)c(F)c2c1 [Compound 115]")
"60 to 90%"
>>> observed("CC(C)CC(=O)Nc1ccc2cc(O)c(N3CC(=O)NS3(=O)=O)c(F)c2c1 [Compound 157]")
"60 to 90%"
>>> observed("O=C1CN(c2c(O)cc3ccc(NCCc4ccccc4)cc3c2F)S(=O)(=O)N1 [Compound 164]")
"> 90%"
>>> observed("O=C1CN(c2c(O)cc3ccc(NCCCC(F)(F)F)cc3c2F)S(=O)(=O)N1 [Compound 166]")
"> 90%"
>>> observed("O=C1CN(c2c(O)cc3ccc(C4=CCOCC4)cc3c2F)S(=O)(=O)N1 [Compound 264]")
"60 to 90%"
>>> observed("O=C1CN(c2c(O)cc3ccc(OCC(=O)N4CCCC4)cc3c2F)S(=O)(=O)N1 [Compound 283]")
"25 to 59%"
>>> observed("O=C1CN(c2c(O)cc3ccc(OCCN4CCOCC4)cc3c2F)S(=O)(=O)N1 [Compound 100]")
"> 90%"
>>> observed("COc1ccc2cc(O)c(N3CC(=O)NS3(=O)=O)c(F)c2c1 [Compound 124]")
"60 to 90%"
>>> observed("CC(C)(C#N)CCOc1ccc2cc(O)c(N3CC(=O)NS3(=O)=O)c(F)c2c1 [Compound 120]")
"60 to 90%"
>>> observed("CC(C)Oc1ccc2cc(O)c(N3CC(=O)NS3(=O)=O)c(F)c2c1 [Compound 279]")
"60 to 90%"
>>> observed("CN(C)CCOc1ccc2cc(O)c(N3CC(=O)NS3(=O)=O)c(F)c2c1 [Compound 131]")
"> 90%"
>>> observed("CC(C)CNc1ccc2cc(O)c(N3CC(=O)NS3(=O)=O)c(F)c2c1 [Compound 201]")
"60 to 90%"
>>> observed("O=C(COc1ccc2cc(O)c(N3CC(=O)NS3(=O)=O)c(F)c2c1)NCCC1CC1 [Compound 281]")
"25 to 59%"
>>> observed("O=C1CN(c2c(O)cc3ccc(C4CCNC4)cc3c2F)S(=O)(=O)N1 (stereo not shown) [Compound 102]")
"60 to 90%"
>>> observed("O=C1CN(c2c(O)cc3ccc(NC4CCN(S(=O)(=O)C5CC5)C4)cc3c2F)S(=O)(=O)N1 (stereo not shown) [Compound 306]")
"60 to 90%"
>>> observed("O=C1CN(c2c(O)cc3ccc(OCCOC4CCC4)cc3c2F)S(=O)(=O)N1 [Compound 214]")
"60 to 90%"
>>> observed("CC(C)CCS(=O)(=O)N1CC=C(c2ccc3cc(O)c(N4CC(=O)NS4(=O)=O)c(F)c3c2)C1 [Compound 313]")
"60 to 90%"
>>> observed("CP(C)(=O)N1CC=C(c2ccc3cc(O)c(N4CC(=O)NS4(=O)=O)c(F)c3c2)C1 [Compound 168]")
"> 90%"
>>> observed("O=C1CN(c2c(O)cc3ccc(OCCC4CCNCC4)cc3c2F)S(=O)(=O)N1 [Compound 108]")
"25 to 59%"
>>> observed("O=C1CN(c2c(O)cc3ccc(OCC4CCOCC4)cc3c2F)S(=O)(=O)N1 [Compound 273]")
"60 to 90%"
>>> observed("O=C1CN(c2c(O)cc3ccc(OCC4CC4)cc3c2F)S(=O)(=O)N1 [Compound 250]")
"60 to 90%"
>>> observed("N#CCCCNc1ccc2cc(O)c(N3CC(=O)NS3(=O)=O)c(F)c2c1 [Compound 174]")
"> 90%"
>>> observed("O=C1CN(c2c(O)cc3ccc(OCC4CCNCC4)cc3c2F)S(=O)(=O)N1 [Compound 114]")
"60 to 90%"
>>> observed("CC(C)C/C=C/c1ccc2cc(O)c(N3CC(=O)NS3(=O)=O)c(F)c2c1 [Compound 240]")
"25 to 59%"
>>> observed("CC(C)OCCOc1ccc2cc(O)c(N3CC(=O)NS3(=O)=O)c(F)c2c1 [Compound 215]")
"60 to 90%"
>>> observed("O=C1CN(c2c(O)cc3ccc(C4CCS(=O)(=O)CC4)cc3c2F)S(=O)(=O)N1 [Compound 248]")
"60 to 90%"
>>> observed("CCOc1ccc2cc(O)c(N3CC(=O)NS3(=O)=O)c(F)c2c1 [Compound 301]")
"60 to 90%"
>>> observed("CC(C)N1CCC(F)(COc2ccc3cc(O)c(N4CC(=O)NS4(=O)=O)c(F)c3c2)C1 (stereo not shown) [Compound 109]")
"< 25%"
>>> observed("COc1ccc2cc(O)c(N3CC(=O)NS3(=O)=O)c(F)c2c1F [Compound 205]")
"25 to 59%"
>>> observed("O=C1CN(c2c(O)cc3ccc(OCC4(F)CCNC4)cc3c2F)S(=O)(=O)N1 (stereo not shown) [Compound 110]")
"60 to 90%"
>>> observed("O=C1CN(c2c(O)cc3ccc(C(F)F)cc3c2F)S(=O)(=O)N1 [Compound 167]")
"60 to 90%"
>>> observed("C[C@H](O)CCOc1ccc2cc(O)c(N3CC(=O)NS3(=O)=O)c(F)c2c1 [Compound 147]")
"> 90%"
>>> observed("O=C1CN(c2c(O)cc3ccc(OCC(F)F)cc3c2F)S(=O)(=O)N1 [Compound 302]")
"60 to 90%"

Cited source: patent US20210009542A1
